Assay: Rodent (mouse) PK model of intravenous administration: dexamethasone levels in kidney tissue
Assay type: in vivo
Conditions: kidney, intravenous; T = 3 h; injection into mouse tail vein; dexamethasone 1 mg/kg, Examples 4 mg/kg; read-out: Kidney tissue concentration (dexamethasone levels in kidneys)

molecule	concentration at 3 h
C[C@@H]1C[C@H]2[C@@H]3CCC4=CC(=O)C=C[C@]4(C)[C@@]3(F)[C@@H](O)C[C@]2(C)[C@@]1(O)C(=O)CO [Dexamethasone, dexamethasone, reference compound]	13 ng/g
